All values here come from ChEMBL document CHEMBL2073822.

# System Name: OCTN2 (organic cation/carnitine transporter 2) (Homo sapiens, UniProt O76082)
# Sequence (O76082 whole entry): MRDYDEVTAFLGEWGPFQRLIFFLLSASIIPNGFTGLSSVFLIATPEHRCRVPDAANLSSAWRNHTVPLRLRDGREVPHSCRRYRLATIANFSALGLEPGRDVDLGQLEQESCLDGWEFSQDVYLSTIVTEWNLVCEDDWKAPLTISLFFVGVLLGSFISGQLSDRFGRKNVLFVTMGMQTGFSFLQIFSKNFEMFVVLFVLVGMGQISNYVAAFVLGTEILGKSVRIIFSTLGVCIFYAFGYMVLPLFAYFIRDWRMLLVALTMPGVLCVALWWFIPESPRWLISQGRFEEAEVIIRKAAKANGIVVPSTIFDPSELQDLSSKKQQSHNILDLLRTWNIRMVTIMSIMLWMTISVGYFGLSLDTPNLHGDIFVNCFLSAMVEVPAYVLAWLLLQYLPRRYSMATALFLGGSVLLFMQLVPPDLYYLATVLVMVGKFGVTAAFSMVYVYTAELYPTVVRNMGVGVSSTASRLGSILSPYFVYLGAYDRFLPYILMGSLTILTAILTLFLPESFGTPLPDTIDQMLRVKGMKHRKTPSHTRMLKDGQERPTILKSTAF
# Measurement Protocol: in vitro
# Setup Conditions: HeLa cells that express OCTN2, probe TEA, 20 uM
# Description: TP_TRANSPORTER: inhibition of TEA uptake (TEA: 20 uM, Nicotine: 5000 uM) in OCTN2-expressing HeLa cells
Quantity Measured: activity at 5000 µM (%)
A number alone suffices; assume %.

(Q) Respond only with activity at 5000 µM recorded for CN1CCC[C@H]1c1cccnc1 [NICOTINE]
(A) 44

---

# System Name: OCTN2 (organic cation/carnitine transporter 2) (Homo sapiens, UniProt O76082)
# Measurement Protocol: in vitro
# Setup Conditions: HeLa cells that express OCTN2, probe TEA, 20 uM
# Description: TP_TRANSPORTER: inhibition of TEA uptake (TEA: 20 uM, Cimetidine: 5000 uM) in OCTN2-expressing HeLa cells
Quantity Measured: activity at 5000 µM
Give me the value, and tack the unit on after it.

(Q) Respond only with activity at 5000 µM recorded for CN/C(=N/CCSCc1nc[nH]c1C)NC#N
(A) 39%
